Origin of the recorded values: patent US20130039936A1

- TARGET_OR_TEST_SYSTEM: T1, HLA-A2 molecule on T2 cells (human)
- T1 construct: also called HLA-A2.1; HLA-A2 molecules
- ASSAY_TEXT: T2 binding assay (flow cytometry, BB7.2 anti-HLA-A2 stain of peptide-loaded T2 cells)
Overview of reported log10 of FI0.5 across a group of binders:
PARAMETER_MEASURED: log10 of FI0.5 (log10 of the value in µM)

{"BINDER": "KILEEIASV [POTE 553-7A]", "log10 of FI0.5": -0.70}
{"BINDER": "LLLEQNADV [POTE 323-7A]", "log10 of FI0.5": 0.44}
{"BINDER": "KLMAKALLL [POTE 252-260]", "log10 of FI0.5": 0.18}
{"BINDER": "YLLEQNVDV [POTE 323-1Y]", "log10 of FI0.5": -0.60}
{"BINDER": "YLMAKALLL [POTE 252-1Y]", "log10 of FI0.5": -0.05}
{"BINDER": "KILEEIESV [POTE 553-561]", "log10 of FI0.5": 0.41}
{"BINDER": "LLAEQNVDV [POTE 323-3A]", "log10 of FI0.5": -0.40}
{"BINDER": "KLAAKALLL [POTE 252-3A]", "log10 of FI0.5": 1.23}
{"BINDER": "YILEEIESV [POTE 553-1Y]", "log10 of FI0.5": -1.62}
{"BINDER": "KLLEEIESV [POTE 553-2L]", "log10 of FI0.5": -1.00}
{"BINDER": "KLMAKALLV [POTE 252-9V]", "log10 of FI0.5": -0.10}
{"BINDER": "KLFAKALLL [POTE 252-3F]", "log10 of FI0.5": 0.18}
{"BINDER": "KIFEEIESV [POTE 553-3F]", "log10 of FI0.5": -0.52}
{"BINDER": "KLMAKAALL [POTE 252-7A]", "log10 of FI0.5": 0.60}
{"BINDER": "LLLEQNVDV [POTE 323-331]", "log10 of FI0.5": -0.52}
{"BINDER": "LLFEQNVDV [POTE 323-3F]", "log10 of FI0.5": -1.05}
